- TESTED ON: T1, Anti-IL-8 Antibody
- T1 construct: also called anti-human IL-8 antibody; Fc-Mutated Antibody
- T1 sequence (constant, as listed by the source limits assumed): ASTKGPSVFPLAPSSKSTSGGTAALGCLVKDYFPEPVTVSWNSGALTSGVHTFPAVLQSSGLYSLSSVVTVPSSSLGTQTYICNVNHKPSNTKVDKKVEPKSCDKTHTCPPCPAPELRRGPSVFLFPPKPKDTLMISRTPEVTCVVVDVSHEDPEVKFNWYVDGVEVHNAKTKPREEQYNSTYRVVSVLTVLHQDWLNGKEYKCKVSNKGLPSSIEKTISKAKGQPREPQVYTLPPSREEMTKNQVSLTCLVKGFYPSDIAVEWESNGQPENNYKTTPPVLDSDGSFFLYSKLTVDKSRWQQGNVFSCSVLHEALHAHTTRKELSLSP
- EXPERIMENT SUMMARY: SPR (Biacore T200), 25 C, pH 7.4; SKA antibody captured by anti-rabbit IgG, Anti-IL-8 Antibody injected 0-800 nM
VALUE KIND: Kd (nM)

# BINDER, RESULT
rows = [
    ("SKA0052 (antibody, V domains shown, Recombinant rabbit monoclonal from B-cell cloning, expressed in FreeStyle 293-F cells; the first screen used B-cell culture supernatant; also called Anti-SG115 Antibody; rabbit Anti Fc-Mutation Antibody) VH: QSLEESGGDLVKSGASLTLTCTASGFSFSSSYYMCWVRQAPGKGLEWIACIYTGSNGDTYYASWANGRFTISKASSTTVTLQMTSLTAADTATYFCARYTYDDDGDYTSFNLWGPGTLVTVSS VL: ALVMTQTPSSVSADVGGTVTINCQASQNIYRNLAWYQQKPGQRPKLLIYGASNLEPGVPSRFKGSGSGTEFTLTISDLECDDAATYYCQSVGYSGSVDTFFYAFGGGTEVVVKG", 47),
    ("SKA0054 (antibody, V domains shown, Recombinant rabbit monoclonal from B-cell cloning, expressed in FreeStyle 293-F cells; the first screen used B-cell culture supernatant; also called Anti-SG115 Antibody; rabbit Anti Fc-Mutation Antibody) VH: QSLEESGGGLVQPEGSLTLTCTASGFSFSSSFWICWVRQAPGKGLEWLACIDAGSSDNTYYANWAKGRFTISKTSSTTVTLQMTSLTDADTATYFCARDRDAAGDAGYGYATSFNLWGPGTLVTVSS VL: AIDMTQTPSSVSAAVGGTVTINCQASESIYSNLAWYQQKPGQRPKLLIYLASTLASGVPSRFKGSGSGTEFTLTISDLECADAATYYCQSVYYDSRGDTFFWAFGGGTEVVVKG", 96.8),
    ("SKA0127 (antibody, V domains shown, Recombinant rabbit monoclonal from B-cell cloning, expressed in FreeStyle 293-F cells; the first screen used B-cell culture supernatant; also called Anti-SG115 Antibody; rabbit Anti Fc-Mutation Antibody) VH: QSVEESGGRLVTPGTPLTLTCTVSGIDLSTYAMTWVRQAPGKGLEYIGYINGGGSAYYASWVNGRFTISKTSTTADLKITSPTTEDTATYFCARGPVGSYHRIWGPGTLVTVSS VL: ALVMTQTPSSVSEPVGGTVTINCRASEDIESYLAWYQQKPGQPPKLLIYATSNLETGVPSRFKGSGSGTDYTLTISGVQCADAATYYCQGYYELSSIDNNAFGGGTEVVVKG", 45.4),
]
